Give measured aptazyme ON/OFF ratio for each item. Keep answers brief.
B1: Pistol ribozyme (parent)
chain: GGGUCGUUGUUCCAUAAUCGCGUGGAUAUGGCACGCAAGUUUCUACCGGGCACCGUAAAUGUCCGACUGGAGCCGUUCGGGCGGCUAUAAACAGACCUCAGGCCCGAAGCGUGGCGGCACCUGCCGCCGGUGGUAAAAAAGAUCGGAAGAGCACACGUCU

# Variants of: B1
# methodSummary: aptazyme ON/OFF ratio, guanine; higher = stronger switching; co-transcriptional cleavage with and without guanine
One number for each entry.

The cases that follow already have their aptazyme ON/OFF ratio on record.
U7C U8G U10A C12G C13G
1.1
U10A C13G
1.1
U7C U8C U11G C12G C13U
1.09
U7C U8G G9U U10A U11C C12U C13A
1.09

Return reported aptazyme ON/OFF ratio values for all items listed beneath this line.
1. U7A U11C C12G C13A
2. U7G U8A U10A C12G C13G
3. U8A U10G U11A C12U
4. U7C G9A U10G C12U C13A
5. U8A G9U U10A U11C C12A C13G
6. U7G U8G G9A U11A C12G
7. U7A U8A G9A U10A U11G C12G C13U

[1.3, 1.22, 1.12, 1.2, 1.2, 1.12, 1.59]
